Ref: patent US11419945B2

The molecules listed here are annotated with their ka.
System: Cyno in house BCMA
Sequence (as listed by the source): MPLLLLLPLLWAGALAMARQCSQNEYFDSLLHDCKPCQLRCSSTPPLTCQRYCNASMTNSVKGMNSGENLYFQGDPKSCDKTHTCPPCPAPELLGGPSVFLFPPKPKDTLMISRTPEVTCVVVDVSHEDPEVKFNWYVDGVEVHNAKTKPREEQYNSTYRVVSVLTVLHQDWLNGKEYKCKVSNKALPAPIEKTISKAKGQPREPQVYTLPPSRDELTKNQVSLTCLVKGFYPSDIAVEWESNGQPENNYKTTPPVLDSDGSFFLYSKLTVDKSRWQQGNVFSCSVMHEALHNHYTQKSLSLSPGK
EXPERIMENTAL_PROTOCOL: ProteOn analysis of CA8 chimeric and humanised constructs, cyno in house BCMA
Assay type: binding
COND: Run 1, Cyno in house BCMA, 25° C., in M-1s-1 (unit assumed)
PROPERTY_NAME: ka

CA8 humanised J5M1: humanised CA8 anti-BCMA antibody, VH J5 (SEQ ID NO:21) + VL M1 (SEQ ID NO:33) (antibody, V domains shown, Humansed antibody sequence) VH: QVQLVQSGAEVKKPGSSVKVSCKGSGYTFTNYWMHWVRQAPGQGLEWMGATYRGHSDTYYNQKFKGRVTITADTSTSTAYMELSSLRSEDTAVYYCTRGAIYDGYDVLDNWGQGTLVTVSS VL: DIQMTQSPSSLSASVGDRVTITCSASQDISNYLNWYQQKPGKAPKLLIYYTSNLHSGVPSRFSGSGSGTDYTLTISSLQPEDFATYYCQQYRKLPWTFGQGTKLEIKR	4.81E+05
CA8 humanised J1M1: humanised CA8 anti-BCMA antibody, VH J1 (SEQ ID NO:13) + VL M1 (SEQ ID NO:33) (antibody, V domains shown, Humansed antibody sequence) VH: QVQLVQSGAEVKKPGSSVKVSCKASGYTFTNYWMHWVRQAPGQGLEWMGATYRGHSDTYYNQKFKGRVTITADKSTSTAYMELSSLRSEDTAVYYCARGAIYNGYDVLDNWGQGTLVTVSS VL: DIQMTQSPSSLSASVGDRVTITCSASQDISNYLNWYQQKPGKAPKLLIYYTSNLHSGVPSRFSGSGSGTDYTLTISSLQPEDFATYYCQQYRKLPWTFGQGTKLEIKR	3.33E+05
CA8 humanised J1M2: humanised CA8 anti-BCMA antibody, VH J1 (SEQ ID NO:13) + VL M2 (SEQ ID NO:35) (antibody, V domains shown, Humansed antibody sequence) VH: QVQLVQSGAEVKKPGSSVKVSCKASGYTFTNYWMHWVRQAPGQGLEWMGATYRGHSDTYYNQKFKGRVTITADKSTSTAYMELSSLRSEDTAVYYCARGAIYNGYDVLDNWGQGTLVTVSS VL: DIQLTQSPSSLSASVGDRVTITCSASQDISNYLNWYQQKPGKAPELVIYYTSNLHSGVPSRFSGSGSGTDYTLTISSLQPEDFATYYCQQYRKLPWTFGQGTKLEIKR	3.19E+05
